Hello, the source for this data is PubChem BioAssay (NCI), in case you need it.

test system: PC-3 prostate; assay: NCI tumour cell line growth inhibition, 48 h
For each entry below, report its TGI value.

Take a look at these entries with their results.
CC(C)=C1CCC(CN2CCOCC2)C1=O (stereo unspecified)	34.1 µM
[N-]=[N+]=Nc1ccc2c(c1)Sc1ccccc1N2CCCCN1CCN(C(=O)CCNC(=O)Cc2ccc(C(=O)c3ccccc3)cc2)CC1	> 21.3 µM
COc1ccc(-c2nsc3c2NC(=O)CC3c2cccc(Cl)c2)cc1 (stereo unspecified)	> 100 µM
Nc1c2cc3ccc2nc2ccc(cc12)OCCOCCOCCOCCOCCOCCO3	> 10 µM

Could you report TGI for every entry in the following list?
1. CC/C(Cc1ccccc1)=C(/c1ccc(O)cc1)c1ccc(OCCN2CCCC2)cc1
2. CC(=O)NC1(C)C(C)C2CC1C(C)C2(C)C (stereo unspecified)

A.
3.25 µM
> 100 µM

# per-item lookup of TGI; items listed below
1. Cn1cncc1-c1c(F)cncc1NC(=O)c1c(N)nn2cc(F)cnc12
2. O=C1NC(=Nc2ccccc2)C(=Nc2ccccc2)N1c1ccccc1
3. CN(C)N=Nc1ccc2[nH]c(=O)[nH]c2c1
4. CC12CCC(CC1(Cl)Cl)C2 (stereo unspecified)
5. C=C1C(=O)O[C@H]2[C@H]1CC/C(COC(=O)NCCc1cccc(OC)c1)=C\CC[C@@]1(C)O[C@@H]21
6. O=C1C(Cl)=C(NCCF)C(=O)c2ncccc21
7. CCOC(=O)c1nc2cc(C(F)(F)F)ccc2nc1Oc1ccc(F)cc1

A.
1. > 100 µM
2. 27.6 µM
3. > 100 µM
4. > 100 µM
5. 5.54 µM
6. 3.09 µM
7. > 100 µM

Provide TGI values for the following items, in order.
1. O=c1c2c3c(sc2nc2n1N=CN(c1ccc(F)cc1)C2)CCCC3
2. O=C(C1OC1c1cccc([N+](=O)[O-])c1)C12CC3CC(CC(C3)C1)C2 (stereo unspecified)
3. O=C1/C(=C/c2ccccc2)CCCc2ccccc21
4. COc1cc(OC)c(C2(c3c(OC(C)C)c(=O)c3=O)SCCCS2)cc1OC
5. CCNC(=S)NNC(=O)CSc1nc2ccc(I)cc2c(=O)n1Cc1ccccc1
6. Cc1cc(N(CCC#N)CCC#N)ccc1/C(N=Nc1ccc([N+](=O)[O-])cc1)=N\NC(=O)c1ccccc1
7. Cc1c(C)c2c(c(C)c1OCC(=O)O)CC[C@@](C)(CCC[C@@H](C)CCC[C@@H](C)CCCC(C)C)O2

A.
1: > 100 µM; 2: 16.1 µM; 3: 35.1 µM; 4: > 100 µM; 5: > 100 µM; 6: > 100 µM; 7: 106 µM

Q. Give its TGI value. Item: `Cc1cc(NS(=O)(=O)c2ccc(Nc3c4ccccc4nc4c(C(=O)NCCO)cccc34)cc2)no1`
A. > 100 µM

----------
test system: HT29 colon; experiment: NCI tumour cell line growth inhibition, 48 h
Task for the reader: assign each of the following compounds its reported TGI.

Before answering, review these 2 worked examples.
O=c1[nH]nc(-c2ccc(F)cc2)cc1-c1ccccc1	> 100 µM
CCOc1ccc(N=Cc2ccnc3ccccc23)cc1	> 100 µM

For each listed entry, give its TGI.
1. COC[C@H]1C(=O)NCC(=O)N2N=CCC[C@H]2C(=O)N(O)[C@H](C)C(=O)O[C@@H](C(C)C)[C@H](NC(=O)[C@@](C)(O)[C@]2(O)CC[C@@H](CC(C)C)[C@H](C)O2)C(=O)N2NCCC[C@@H]2C(=O)N1O
2. CC(=O)c1c(O)n(-c2ccc(C)cc2)c(=O)c2c(N)n[nH]c12
3. COc1ccccc1C1C(C#N)=C(N)Oc2cc(O)ccc21 (centres undefined)
4. C=CCn1c(=N)/c(=C(\N)O)s/c1=C1/SC(=S)N(c2ccc(C)cc2)C1=O
5. O=C(c1ccco1)N(C(=S)N1CCN(c2ccccn2)CC1)c1ccccc1
6. CN1NC(c2ccccc2)=C(C#N)C(=O)CC1c1ccc(Br)cc1 (centres undefined)

A.
0.0307 µM
> 100 µM
45.1 µM
> 100 µM
> 100 µM
75.6 µM

Q. Fill blank: measured TGI of the compound `COc1ccc(-c2nn3ncccc3c2-c2ccnc(Nc3ccc4c(c3)OCCO4)n2)cc1` is ____.
A. > 23.8 µM

----------
Please provide measured TGI for the entries that follow.
test system: SK-MEL-28 melanoma; test: NCI tumour cell line growth inhibition, 48 h

Reference set, count: 6
CCC(=O)C(C(=O)CC)c1c(OC(=O)c2ccccc2)ccc(O)c1C(=O)OC	> 100 µM
O=c1[nH]c(=O)n([C@@H]2O[C@H](CO)[C@@H](O)[C@@H]2F)cc1I	> 100 µM
O=[N+]([O-])C(C(Cl)=C(Cl)Cl)=C(n1cncn1)n1cncn1	> 95.9 µM
COc1ccc(-c2nn3ncccc3c2-c2ccnc(Nc3ccc4c(c3)OCCO4)n2)cc1	> 25 µM
O=C1C=C(Nc2ccc(S(=O)(=O)Nc3ncccn3)cc2)c2ccccc2C1=O	60.6 µM
C[n+]1ccccc1/C1=c2\cc/c([nH]2)=C(\c2cccc[n+]2C)C2=N/C(=C(/c3cccc[n+]3C)C3C=CC(N3)/C(c3cccc[n+]3C)=C3/C=CC1=N3)C=C2	> 100 µM

Please supply TGI for each of the following items, keeping them in order.
1. NCCNC(=O)CN(CC(=O)O)C1CCCCC1N(CC(=O)O)CC(=O)O (centres undefined)
2. CC(C)C(=S)N(C)O
3. O=C(Nc1ccc2cc3ccccc3cc2c1)c1cc2c(cc1Cl)Sc1nccn1S2(=O)=O

A.
["> 100 µM", "> 100 µM", "> 100 µM"]

----------
tested on: HOP-62 NSCLC; test: NCI tumour cell line growth inhibition, 48 h; in the data active = GI50 below about 0.43 µM; inactive = the rest
Return exactly one item of active, inactive

Some solved entries appear below for comparison.
COc1ccc(-c2nn3ncccc3c2-c2ccnc(Nc3ccc4c(c3)OCCO4)n2)cc1	inactive
CCc1nn2ncccc2c1-c1ccnc(NC2CC2)n1	inactive
CCN(CC)c1ccc(/C=N/NC(=O)CSc2nc3ccccc3c(=O)n2Cc2ccc(S(N)(=O)=O)cc2)c(O)c1	inactive

Q. What classification did `Cn1cncc1-c1c(F)cncc1NC(=O)c1c(N)nn2cc(F)cnc12` end up with in this test?
A. inactive

Q. Same again, this time with `Cc1cn2c(/C=N/N=C(N)N)c(-c3ccncc3)nc2s1`
A. inactive

Q. Input `COc1cc(-c2cc3ncccc3c3[nH]c(=O)c4cccnc4c23)cc(OC)c1OC`
A. inactive

Q. Repeat for the following compound: `Oc1c(O)c(Cl)c(Cl)c(Cl)c1Cl`
A. inactive

Q. For O=C(Oc1ccccc1)C(Br)C(Br)c1ccccc1 (centres undefined) then?
A. inactive

Q. Try this compound next: `O=C(Nc1ccc2c(c1)OCCO2)C(=O)c1c[nH]c2ccccc12`
A. inactive

Q. Also need COc1ccc(-c2nsc3c2NC(=O)CC3c2cccc(Cl)c2)cc1 (centres undefined) , thanks.
A. inactive

Q. Again, but for `CCN(CC)c1ccc2nc3ccc(N=Nc4ccc(O)cc4)cc3[n+](-c3ccccc3)c2c1`
A. inactive

----------
test system: HOP-92 NSCLC; test: NCI tumour cell line growth inhibition, 48 h
Please provide measured TGI for the entries that follow.
One number for each entry, in µM.

Below are some compounds; for each one, tell me its TGI.
1. O=C(C1OC1c1cccc([N+](=O)[O-])c1)C12CC3CC(CC(C3)C1)C2 (centres undefined)
2. CCNC(=S)NNC(=O)CSc1nc2ccc(I)cc2c(=O)n1Cc1ccccc1
3. COc1ccc(-c2nc(N)c(C#N)c3c2CCOc2c-3ccc3ccccc23)cc1
4. CCOC(=O)C#Cc1c(C(=O)OCC)nnn1[C@@H]1O[C@H](CO)[C@H]2OC3(CCCCC3)O[C@H]21
5. COC[C@H]1C(=O)NCC(=O)N2N=CCC[C@H]2C(=O)N(O)[C@H](C)C(=O)O[C@@H](C(C)C)[C@H](NC(=O)[C@@](C)(O)[C@]2(O)CC[C@@H](CC(C)C)[C@H](C)O2)C(=O)N2NCCC[C@@H]2C(=O)N1O

A.
25.3
97.7
37.9
5.27
0.0334

----------
system: UACC-257 melanoma; assay: NCI tumour cell line growth inhibition, 48 h; in the data active means GI50 below about 0.43 µM; inactive means the rest
Respond using exactly one of the listed classes: TRUE for active, FALSE for inactive

Reference set, count: 5
Cc1nc(Sc2nc3ccc([N+](=O)[O-])cc3s2)sc1C	FALSE
O=C1Nc2ccccc2/C1=C/c1cn(CC(O)Cn2cc(/C=C3\C(=O)Nc4ccccc43)c3ccccc32)c2ccccc12 (stereo unspecified)	FALSE
COc1ccc2nc3cccc([N+](=O)[O-])c3c(NCCNCCN(C)C)c2c1	FALSE
COc1ccc(-c2n[nH]nc2-c2cc(OC)c3c(c2)OCO3)cc1	FALSE
C[C@H](NC(=O)c1c(C(F)F)nn(C)c1Oc1cccc(C(F)(F)F)c1)c1ccc(C(=O)O)cc1	FALSE

Q. Name the outcome recorded for COc1ccc(-c2nsc3c2NC(=O)CC3c2cccc(Cl)c2)cc1 (stereo unspecified) in the assay.
A. FALSE

Q. Param item: CCC[CH2][Sn]([CH2]CCC)([CH2]CCC)[O]C(=O)C(OC)c1ccccc1 (stereo unspecified)
A. TRUE

Q. Then what about the compound `COc1cc2nc(-c3cccc4cccnc34)nc(NC3CCN(Cc4ccccc4)CC3)c2cc1OC` ?
A. FALSE

Q. Please do the same for `CCC[CH2][Sn]([CH2]CCC)([O]C(=O)c1cccc(F)c1F)[O]C(=O)c1cccc(F)c1F` as well.
A. FALSE

Q. Then `Nc1nc2c(ccc3ccccc32)s1` ?
A. FALSE

Q. Can you handle COc1cc(CN(c2ccc(C)cc2)C2OC(=O)c3ccccc32)cc(OC)c1OC (stereo unspecified) next?
A. FALSE
